- Measured On: human recombinant GSK3β (Homo sapiens, UniProt P49841)
- Construct: 6His (N)
- Sequence (P49841 whole entry): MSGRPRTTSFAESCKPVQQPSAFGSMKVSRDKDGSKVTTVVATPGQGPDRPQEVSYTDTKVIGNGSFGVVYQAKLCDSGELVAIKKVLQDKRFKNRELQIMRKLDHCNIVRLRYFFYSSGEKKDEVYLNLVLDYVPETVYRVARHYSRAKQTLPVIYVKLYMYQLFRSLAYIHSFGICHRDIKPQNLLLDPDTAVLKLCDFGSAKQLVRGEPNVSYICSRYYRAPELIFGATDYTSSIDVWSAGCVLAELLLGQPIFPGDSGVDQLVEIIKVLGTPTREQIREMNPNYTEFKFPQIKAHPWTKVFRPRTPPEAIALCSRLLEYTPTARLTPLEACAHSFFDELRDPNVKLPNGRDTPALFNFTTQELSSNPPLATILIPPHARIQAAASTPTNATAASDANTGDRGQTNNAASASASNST
- Experiment Summary: GSK-3β enzymatic assay (Z'-LYTE FRET)
- Setup Conditions: 2 nM enzyme, 12.5 µM ATP, 2 µM substrate peptide, 60 min incubation at room temperature; read-out: GSK3β inhibition average EC50
# EC50 annotations
Write it as a number; the unit µM goes unstated.

CCOC(=O)CC[C@H](NC(=O)SSCc1ccccc1)C(=O)OCC
6.8
O=C(SSCc1ccccc1)N1C(=O)c2ccccc2C1=O
0.47
COC(=O)C(Cc1ccccc1)NC(=O)SSCc1ccccc1 (stereo not shown)
1.3
CCOC(=O)CCNC(=O)SSCc1ccccc1
0.91
COC(=O)[C@@H](Cc1c[nH]c2ccccc12)NC(=O)SSCc1ccccc1
3.3
COC(=O)[C@@H]1CCCN1C(=O)SSCc1ccccc1
0.13
CCOC(=O)[C@H](CC(C)C)NC(=O)SSCc1ccccc1
14
CCOC(=O)CN(CC(=O)OCC)C(=O)SSCc1ccccc1
0.22

Just so you know, measured EC50 for CCOC(=O)CNC(=O)SSCc1ccccc1 came out at 0.46

Just so you know, measured EC50 for CCOC(=O)[C@H](Cc1ccc(O)cc1)NC(=O)SSCc1ccccc1 came out at 1.5

* * *

- Measured On: human recombinant GSK3β (Homo sapiens, UniProt P49841)
- Construct: 6His (N)
- Experiment Summary: GSK-3β enzymatic assay (Z'-LYTE FRET)
- Setup Conditions: 2 nM enzyme, 12.5 µM ATP, 2 µM substrate peptide, 60 min incubation at room temperature; read-out: GSK3β inhibition average EC50
Property Measured: EC50 (µM)
Write it as a number; the unit µM goes unstated.

Look over these answered cases.
CCOC(=O)[C@H](Cc1ccccc1)NC(=O)SSCc1ccccc1
3.9
COC(=O)CC(NC(=O)SSCc1ccccc1)C(=O)OC (stereo not drawn)
8.7
CCOC(=O)CN(Cc1ccccc1)C(=O)SSCc1ccccc1
0.26
COC(=O)CN(C)C(=O)SSCc1ccccc1
0.29
CCOC(=O)[C@H](C)NC(=O)SSCc1ccccc1
5.4

Shifting focus to the compound that follows.
Just so you know, measured EC50 for CN(C(=O)SSCc1ccccc1)C(=O)c1ccccc1 came out at 10
